- Tested on: UACC-257 melanoma
- assay-remarks: NCI tumour cell line growth inhibition, 48 h
Where a SMILES comes first, the peptide text is derived from it. The star is where a group is joined. Trt = c1ccc(C(c2ccccc2)(c2ccccc2)*)cc1; Cbz = O=C(OCc1ccccc1)*
The entries below come with measured TGI values attached.

>  <compound>
CCOC(=O)C(C)(NC(=O)c1ccc(NCc2ccc3nc(NC(=O)c4ccccc4)nc(NC(=O)c4ccccc4)c3c2)cc1)C(=O)OCC

>  <assay-system>
UACC-257 melanoma

>  <relational-operator>
=

>  <TGI, µM>
36.4

$$$$
>  <compound>
O=c1[nH]/c(=C/c2ccc3c(c2)OCO3)c(=O)[nH]/c1=C/c1ccc2c(c1)OCO2

>  <assay-system>
UACC-257 melanoma

>  <relational-operator>
>

>  <TGI, µM>
10

$$$$
>  <compound>
COc1ccc(/C=c2\c(=O)[nH]c3nc4ccccc4c(=O)n23)cc1

>  <assay-system>
UACC-257 melanoma

>  <relational-operator>
>

>  <TGI, µM>
100

$$$$
>  <compound>
CC(C)(C)N=CN1C=Cc2nc3ccccc3cc2C1

>  <assay-system>
UACC-257 melanoma

>  <relational-operator>
>

>  <TGI, µM>
100

$$$$
>  <compound>
O=C1CC(c2c[nH]c3ccc(F)cc23)C(=O)N1 (stereo not given)

>  <assay-system>
UACC-257 melanoma

>  <relational-operator>
>

>  <TGI, µM>
100

$$$$
>  <compound>
Oc1ccc(Cl)cc1C(c1cc(Cl)ccc1O)C(Cl)(Cl)Cl

>  <assay-system>
UACC-257 melanoma

>  <relational-operator>
=

>  <TGI, µM>
10.3

$$$$
>  <compound>
COc1ccc(Nc2nc3ccccc3n3cccc23)cc1OC

>  <assay-system>
UACC-257 melanoma

>  <relational-operator>
=

>  <TGI, µM>
29.4

$$$$
>  <compound>
CN=c1ss/c(=N\C(=S)N(C)C)n1C

>  <assay-system>
UACC-257 melanoma

>  <relational-operator>
>

>  <TGI, µM>
100

$$$$
>  <compound>
COc1ccc(C2=Nc3c(nc(OC)[nH]c3=O)NC(c3ccccc3)C2)cc1 (stereo not given)

>  <assay-system>
UACC-257 melanoma

>  <relational-operator>
>

>  <TGI, µM>
100

$$$$
>  <compound>
CCN1CCN(c2nc(C)cc(N(CCCNc3ccnc4cc(Cl)ccc34)Cc3ccc4c(c3)OCO4)n2)CC1

>  <assay-system>
UACC-257 melanoma

>  <relational-operator>
=

>  <TGI, µM>
3.49

$$$$
>  <compound>
CC(C)(C)c1cc(C(=O)Nc2ccccc2C(=O)NCCN)cc(C(C)(C)C)c1

>  <assay-system>
UACC-257 melanoma

>  <relational-operator>
=

>  <TGI, µM>
3.93

$$$$
>  <compound>
COc1ccccc1NC(=O)C1=C(C)NC(C)=C(C(=O)Nc2ccccc2OC)C1c1ccccc1[N+](=O)[O-]

>  <assay-system>
UACC-257 melanoma

>  <relational-operator>
=

>  <TGI, µM>
47.5

$$$$
>  <compound>
O=C1Nc2ccc(Cl)cc2/C1=C\c1c(-c2ccc(Cl)cc2)nc2sc(C3CC3)nn12

>  <assay-system>
UACC-257 melanoma

>  <relational-operator>
=

>  <TGI, µM>
14.4

$$$$
>  <compound>
N#C/C(=C\c1ccncc1)c1csc2ccccc12

>  <assay-system>
UACC-257 melanoma

>  <relational-operator>
>

>  <TGI, µM>
75.3

$$$$
>  <compound>
COC(=O)C(CO)NC(=O)C(CSC(c1ccccc1)(c1ccccc1)c1ccccc1)NC(=O)OCc1ccccc1 (stereo not given) (Cbz-Cys(Trt)-Ser-OMe; configuration not given here)

>  <assay-system>
UACC-257 melanoma

>  <relational-operator>
=

>  <TGI, µM>
25.6

$$$$
>  <compound>
C=C1C(=O)O[C@H]2[C@H]1CC/C(COC(=O)c1cc(OC)c(OC)c(OC)c1)=C\CC[C@@]1(C)O[C@@H]21

>  <assay-system>
UACC-257 melanoma

>  <relational-operator>
=

>  <TGI, µM>
3.12

$$$$
>  <compound>
CCOC(=O)c1c[nH]c(C(=O)OCC)c1-c1cccn1-c1ccccc1

>  <assay-system>
UACC-257 melanoma

>  <relational-operator>
>

>  <TGI, µM>
100

$$$$
>  <compound>
NC1NC=NC2C1N=CN2C1OC(CO)C2[O][Sn][O]C21 (stereo not given)

>  <assay-system>
UACC-257 melanoma

>  <relational-operator>
>

>  <TGI, µM>
100

$$$$
>  <compound>
Nc1nnc2c(-c3ccccc3)[nH]nc2n1

>  <assay-system>
UACC-257 melanoma

>  <relational-operator>
>

>  <TGI, µM>
100

$$$$
>  <compound>
CC(C)[C@@H]1CC[C@@H](C)C[C@H]1OC(=O)c1c2n(c3ccccc13)C[C@H]1OC(C)(C)O[C@@H]21

>  <assay-system>
UACC-257 melanoma

>  <relational-operator>
>

>  <TGI, µM>
100

$$$$

* * *

- Tested on: NCI-H460 lung
Classes used: active, inactive

>  <smiles-representation>
COc1cc[c]([Sn]([c]2ccc(OC)cc2)([c]2ccc(OC)cc2)[c]2ccc(OC)cc2)cc1

>  <label-class>
inactive

$$$$
>  <smiles-representation>
COc1ccc2nc3cc(Cl)ccc3c(NCCCNCCO)c2c1

>  <label-class>
active

$$$$
>  <smiles-representation>
COc1cccc(/C=C/C(=O)c2ccc3cc(OC)ccc3c2)c1

>  <label-class>
inactive

$$$$
>  <smiles-representation>
CN=C(N)c1ccc(N=C(N)c2ccc(-c3ccc(C(N)=Nc4ccc(C(N)=NC)cc4)cc3)cc2)cc1

>  <label-class>
inactive

$$$$
>  <smiles-representation>
CC(C)(C)c1cc(C(=O)Nc2ccccc2C(=O)NCCN)cc(C(C)(C)C)c1

>  <label-class>
inactive

$$$$
>  <smiles-representation>
O=C(Nc1ccc(Oc2ccc(F)cc2)cc1)[C@@H]1C[C@@H](Cc2ccc(F)cc2)CN1C(=O)Cn1ccnn1

>  <label-class>
inactive

$$$$
>  <smiles-representation>
O=C(Nc1ccc(Oc2ccc3nc(NC(=O)c4ccco4)[nH]c3c2)cc1)Nc1cc(C(F)(F)F)ccc1F

>  <label-class>
inactive

$$$$

* * *

- System: BT-549 breast
- assay-remarks: NCI tumour cell line growth inhibition, 48 h
Listed next: entries and their corresponding TGI.

>  <compound>
O=C(O)C1=C/C(=C(/c2ccccc2)c2cc(C(=O)O)c(O)c3ccccc23)c2ccccc2C1=O

>  <assay-system>
BT-549 breast

>  <TGI>
> 100 µM

$$$$
>  <compound>
CCN(CC)CCCNc1c2c(Cl)cc(Cl)cc2nc2nc(=O)[nH]c(C)c12

>  <assay-system>
BT-549 breast

>  <TGI>
> 100 µM

$$$$
>  <compound>
C1CNOCCCONCCCNOCCCONC1

>  <assay-system>
BT-549 breast

>  <TGI>
> 100 µM

$$$$
>  <compound>
O=C1NC(=NCc2ccccc2Cl)S/C1=C\c1ccc2ncccc2c1

>  <assay-system>
BT-549 breast

>  <TGI>
> 25 µM

$$$$
>  <compound>
NS(=O)(=O)c1ccc(NC(=O)N/N=C/c2ccccc2O)cc1

>  <assay-system>
BT-549 breast

>  <TGI>
> 100 µM

$$$$
>  <compound>
FC(F)(F)c1ccccc1C1SCC2=Nc3ccccc3CN21 (stereo not given)

>  <assay-system>
BT-549 breast

>  <TGI>
44.2 µM

$$$$
>  <compound>
C=CCCC1(O)C(O)C(CO)O[C@H](O[C@@]2(CO)OC(CO)C(O)C2O)C1O (stereo not given in full)

>  <assay-system>
BT-549 breast

>  <TGI>
> 100 µM

$$$$
>  <compound>
N#CCn1c(=O)c(Oc2ccc(F)cc2F)cc2cnc(NC3CCOCC3)nc21

>  <assay-system>
BT-549 breast

>  <TGI>
> 25 µM

$$$$
>  <compound>
COc1ccc(-c2cc(-c3ccc(Nc4nc(Nc5ccccc5)nc(Nc5ccc(Cl)cc5)n4)cc3)nc(N)n2)cc1

>  <assay-system>
BT-549 breast

>  <TGI>
29.5 µM

$$$$
>  <compound>
O=C1CCN2c3ccccc3[C@H]3Cc4cccc(c4[C@@H]2C3)CCO1

>  <assay-system>
BT-549 breast

>  <TGI>
> 100 µM

$$$$

* * *

- Test system: NCI-H23 lung
- assay-remarks: NCI tumour cell line growth inhibition, 48 h
# GI50 per entry
metric: GI50

>  <compound>
O=C1/C(=C/c2ccc(Cl)c(Cl)c2)CN(C(=O)C(Cl)Cl)C/C1=C\c1ccc(Cl)c(Cl)c1

>  <measured-result>
0.136 µM

$$$$
>  <compound>
Clc1nccc2c(-c3csc(-c4c[nH]c5ccc(Br)cc45)n3)c[nH]c12

>  <measured-result>
2.42 µM

$$$$
>  <compound>
C#Cc1cccc(Nc2ncnc3cc(NC(=O)CCl)ccc23)c1

>  <measured-result>
3.26 µM

$$$$
>  <compound>
NS(=O)(=O)c1ccc(Nc2cc(-c3ccc(O)c(F)c3)[nH]n2)cc1

>  <measured-result>
> 25 µM

$$$$
>  <compound>
O=C(CS(=O)(=O)c1nc2ccccc2nc1-c1ccccc1)Nc1ccc(F)cc1

>  <measured-result>
> 100 µM

$$$$
>  <compound>
Cn1cc(/C=C\[N+](=O)[O-])c2ccccc21

>  <measured-result>
74.7 µM

$$$$
>  <compound>
CCOC(=O)c1c(-c2ccccc2)[n+](=O)c2cc(Cl)c(Cl)cc2n1[O-]

>  <measured-result>
10.1 µM

$$$$
>  <compound>
CC1CC2C3CCC4=CC(=O)C=CC4(C)C3(F)C(O)CC2(C)C1(O)C(=O)COP(=O)(O)O (configuration not stated)

>  <measured-result>
> 500 µM

$$$$
>  <compound>
CC(C)=CCc1cc2c(cc1O)C1=C(C(=O)C3=C(C1=O)S(=O)(=O)CCN3)C(C=C(C)C)O2 (configuration not stated)

>  <measured-result>
0.7 µM

$$$$
>  <compound>
COc1cnc2c(c1)C(=O)c1c-2n(CCCNC2=NCCS2)c(=O)c2cc(F)ccc12

>  <measured-result>
0.22 µM

$$$$
>  <compound>
COc1cc(/C=C/C(=O)c2cccc(-n3cc(-c4cc(OC)c(OC)c(OC)c4)[nH]c3=O)c2)cc(OC)c1OC

>  <measured-result>
2 µM

$$$$
>  <compound>
CCN(CC)c1ccc(/C=C/C(=O)c2ccc(Nc3nc(Nc4ccccc4)nc(Nc4ccccc4)n3)cc2)cc1

>  <measured-result>
11.1 µM

$$$$
